target: AUF1-RRM1,2 (UniProt Q14103-4 70-239); assay: ITC; no small molecule; ITC: 10 mM K2HPO4, 20 mM KCl, 0.5 mM EDTA, 4 mM BME, pH 6.5, 25 C; lysate pull-down: 5 mM HEPES pH 7.1, 40 mM KCl, 0.1 mM EDTA, 2 mM MgCl2, 2 mM DTT, 0.25 mg/ml heparin, 30 C; conditions: protein: recombinant; tags: N-terminal His6, cleaved with TEV; hairpin with 5-nt bulge and 7-nt apical loop
Sequence (Q14103 other isoform, or with tags, fused parts or gaps): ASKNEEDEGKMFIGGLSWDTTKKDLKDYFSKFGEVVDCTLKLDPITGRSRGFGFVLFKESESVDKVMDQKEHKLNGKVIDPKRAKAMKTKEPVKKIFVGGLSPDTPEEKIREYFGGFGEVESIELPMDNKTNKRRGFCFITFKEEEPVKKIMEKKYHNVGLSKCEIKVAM
OBSERVATION TYPE: Kd (nM)
Answer format: numeric, nM implied, no suffix.

What does the data say about its Kd? Entry: GGAUCAAUAGCAGGUGUGGCACACCAGUCAUACCUUGAUCC (structured_RNA) [EV71 SLII (SLII2231)]
336

Reference source for all entries: paper PMC7508794
